# protocol text: Half life in mouse at 10 mg/kg, iv
# Format: ADME, organism-based
# Parameters: dose 10 mg/kg, route intravenous
# test conditions: in vivo
quantity measured: half-life (min)
Kindly provide the numeric value in min only, without the unit symbol.

stdin: Please give the measured half-life for this compound: CC(C(=O)N[C@H]1C2CC3CC1C[C@](O)(C3)C2)N1CCN(c2ccc(C(F)(F)F)cn2)CC1 (mixture of isomers)
stdout: 24

stdin: Please give the measured half-life for this compound: CC(C(=O)N[C@H]1C2CC3CC1C[C@](O)(C3)C2)N1CC(Oc2ccccc2F)C1 (stereo partly drawn)
stdout: 18

stdin: Please give the measured half-life for this compound: CC(C(=O)N[C@H]1C2CC3CC1C[C@](O)(C3)C2)N1CCc2ccc3c(c2CC1)OCO3 (stereo partly drawn)
stdout: 30

Taken from ChEMBL document CHEMBL1139224.
